Tested on: IGROV1 ovarian
run-description: NCI tumour cell line growth inhibition, 48 h
measured-attribute: TGI

[Q] Which TGI is listed for CN(C(=O)c1ccc([N+](=O)[O-])cc1)c1ccccc1 ?
[A] > 100 µM

[Q] Moving on to the next compound: COC(=O)c1cc2c(cc1CC1Cc3cc4c(cc3C1)CCC4)CCC2
[A] > 100 µM

[Q] Also, C=Cc1ccc(C)[n+](C[Si](C)(C)O[Si](C)(C)C[n+]2cc(C=C)ccc2C)c1 please.
[A] > 100 µM

[Q] Can you handle CCCCn1cnc2c(c(CC#N)nn2-c2ccccc2)c1=N next?
[A] > 100 µM
